system: MDA-MB-435 melanoma; test: NCI-60 one-dose screen, 48 h (100 = growth as untreated, 0 = no growth, -100 = all killed); settings: 10 µM
Compounds without any hit were thinned out: in the full panel of roughly 83,000, 20% have a hit.
Items are presented alongside their recorded growth.
Measured Attribute: growth (%)

CCc1ccc(-c2ccc(-n3nc(C)c4c(N)nc(Cc5ccccc5)nc43)cc2)cc1 : 82.7
CCN1CC(CCN2CCOCC2)C(C(c2ccccc2)c2ccccc2)C1=O (stereo not drawn) : 99.3
CC(C)(O)CCl : 102

====

Items are presented alongside their recorded growth.
system: K-562 leukemia; assay: NCI-60 one-dose screen, 48 h (100 = growth as untreated, 0 = no growth, -100 = all killed); conditions: 10 µM
This is part of a sample that, as a whole, favours compounds with a hit. Of some 83,000 tested, about 20% had one in any assay.
Measured Attribute: growth (%)

COc1ccccc1/C=N\N/C(N)=N\N=C\c1ccccc1OC : 2.34
COc1ccc(-c2cc(-c3ccc(Cl)cc3)nc(SCCCC(=O)NO)n2)cc1 : 7.35
CN(C)CCCSc1ccccc1NC1=C(Cl)C(=O)C(Nc2ccccc2SCCCN(C)C)=C(Cl)C1=O : -18.8
Cc1ccc(-n2nnnc2N)c(C)c1 : 115
Cc1ccc(C(=O)C2C(=O)C3CCC2C3)cc1 (stereo unspecified) : 102
CCN(CC)CCCOc1cccc2c1C(=O)c1cccc(OCCCN(CC)CC)c1C2=O : 16.1
COc1cc(-c2nn(-c3ccc(NC(=O)NCCNS(=O)(=O)c4ccc(F)cc4)cc3)cc2-c2ccncc2)ccc1Cl : 2.45
CC(C)(C)c1ccc(S(=O)(=O)N[C@H]2CC[C@H]3[C@@H]4CCc5cc(O)c([N+](=O)[O-])cc5[C@H]4CC[C@]23C)cc1 : 70.1
NS(=O)(=O)c1ccc(N2N=C(c3ccccc3)CCC2=O)cc1 : 85.1
C/C=C/C1=CN2C(=O)c3cc(OC4OC(C)C(NC)C(C)(O)C4O)c(C)c(O)c3N=C[C@@H]2C1 (stereo partly specified) : 4.18
NS(=O)(=O)Oc1ccc2c(ccn2C(=O)C23CC4CC(CC(C4)C2)C3)c1 : 101

====

tested on: A498 renal; test: NCI-60 one-dose screen, 48 h (100 = growth as untreated, 0 = no growth, -100 = all killed); conditions: 10 µM
About 83,000 compounds went through this panel and 20% of them were active in at least one assay; those are over-represented in the sample as a whole.
Measured Attribute: growth (%)

O=C(c1ccccc1)N(C(=O)c1ccccc1)N1CCCC1 : 106
COc1ccc(/C(C#N)=C/c2cccc(OC)c2OC)cc1 : 87.2
CCN(CC)CCCOc1cccc2c1C(=O)c1cccc(OCCCN(CC)CC)c1C2=O : 46.4
Cc1ccc(NC(=O)N2CCCCC2)cc1[N+](=O)[O-] : 107
NS(=O)(=O)Oc1ccc2c(ccn2C(=O)C23CC4CC(CC(C4)C2)C3)c1 : 98.1
COc1cc(C2CC(c3ccc4c(c3)OCO4)=NN2c2ccccc2)cc(OC)c1OC (centres undefined) : 97.9
O=C(N/N=C/c1ccc(Cl)cc1)c1ccccc1Nc1cccc(C(F)(F)F)c1 : -13.2
O=C(Nc1ccc(NS(=O)(=O)c2ccc(F)cc2)cc1)C12CC3CC(CC(C3)C1)C2 : 90.8
Cc1ccc(/C=C/C(=O)C(=O)/C=C/c2ccc(C)cc2)cc1 : 101
CC[C@@H](C(=O)[C@@H](C)[C@@H](O)[C@H](C)[C@@H]1O[C@@H]([C@@H](CC)C(=O)O)CC[C@@H]1C)C1O[C@]2(C=CC(=O)[C@]3(CC[C@@](C)([C@H]4CC[C@](O)(CC)[C@H](C)O4)O3)O2)[C@H](C)C[C@@H]1C (some centres undefined) : -11.4
CN1CCN(CCCn2c(=O)c3sc4ncccc4c3n3nnc(-c4ccccc4)c23)CC1 : 64.6
O=c1c(Br)ccc(Br)cc1Br : 93
COc1nc2c(c(=O)n1C)CN(c1ccccc1)C(=O)C(C)N2 (centres undefined) : 115
CCN(CC)CCN1c2nc3ccccc3cc2Sc2cc3ccccc3nc21 : 25.7

====

Test system: SNB-19 CNS
Experiment: NCI-60 one-dose screen, 48 h
Settings: 10 µM
Procedure: Growth inhibition of the SNB-19 human tumor cell line is measured as a screen for anti-cancer activity. Cells are grown in 96 well plates and exposed to the test compound for 48 hours. Compounds are tested at a single concentration, which is 10^-5 M for most compounds. The reported endpoint is percent growth (GI% or GIPRCNT), where numbers from 0 - 100% represent growth inhibition, and numbers from -100% - 0 represent cell death. For example, a value of 40 represents 60% growth inhibition. […]
This is part of a sample that, as a whole, favours compounds with a hit. Of some 83,000 tested, about 20% had one in any assay. Calls of active or inactive are those of the source. The calls were made as follows: active = growth percent below 10; inactive = the rest.
Possible outcomes: active, inactive

Cc1ccc(C(SCC(N)C(=O)O)(c2ccc(C)cc2)c2ccc(C)cc2)cc1 (stereo not given) : inactive
CNC(=O)c1cc(Oc2ccc3c(c2)sc2nc(-c4ccc(NC(=O)Nc5ccc(Cl)c(C(F)(F)F)c5)cc4)cn23)ccn1 : inactive
Cc1cn(-c2cccc(NC(=O)c3ccc(C)c(Nc4nccc(-c5cccnc5)n4)c3)c2)cn1 : inactive
Cc1ccc(NCCN(C)CC(C)O)c2c(=O)c3ccccc3sc12 (stereo not given) : inactive
NC1=NC(c2ccccc2)C2=C(N1)/C(=C/c1ccccc1)CCC2 (stereo not given) : inactive
COc1ccc(-c2onc(N)c2-c2cc(OC)c3c(c2)OCO3)cc1 : inactive
COc1cc2c(cc1NC(=O)C(Cl)Cl)-c1ccc(NC(=O)C(Cl)Cl)cc1C2 : active
COc1cc2cc(Oc3ccc(NC(=O)Nc4cccc(C(F)(F)F)c4)cc3)c(C)nc2cc1OC : inactive
CCn1c(SC/C(=N/O)c2ccccc2)nnc1-c1ccccc1 : inactive
Cc1ccc(NCCN(C)CC(C)O)c2c(=O)c3ccc(Cl)cc3sc12 (stereo not given) : inactive
Cc1c2c[n+](C(C)C)ccc2c(C)c2c1[nH]c1ccccc12 : active
COc1ccc2c(c1)C(=O)/C(=C/c1ccc([N+](=O)[O-])o1)O2 : inactive
CCN(CC)CCOC(=O)c1cc(OCc2ccccc2)c(OCc2ccccc2)c(OCc2ccccc2)c1 : inactive
CC(=O)C1CCC2C3CC=C4CC(SC(=N)N)CCC4(C)C3CCC12C (stereo not given) : inactive
Cc1ccc(C(C)C)c(O)c1NC(=O)OC(C)C : inactive

====

tested on: HCC-2998 colon; assay: NCI-60 one-dose screen, 48 h (100 = growth as untreated, 0 = no growth, -100 = all killed); settings: 10 µM
This is part of a sample that, as a whole, favours compounds with a hit. Of some 83,000 tested, about 20% had one in any assay.
Measured Attribute: growth (%)

CC(=O)[C@@]12O[C@](C)(c3ccccc3)O[C@@H]1CC1C3CCC4=CC(=O)CC[C@]4(C)C3CC[C@@]12C (stereo partly specified) : 79.3
COc1cc(C(=O)/C=C/c2c[nH]c3ccccc23)cc(OC)c1OC : 19.6
CNC(=O)c1cn2c3c(c(N4CCN(C)CC4)c(F)cc3c1=O)OC[C@@H]2C : 108
COc1cc2cc(Oc3ccc(NC(=O)c4ccccc4)cc3)c(C)nc2cc1OC : 125
OC(CNc1ccnc2cc(Cl)ccc12)CNC1CCCCC1 (stereo unspecified) : 64.3
CN1CCc2c(sc3nc4n(-c5ccc(Cl)cc5)c(=O)[nH]n4c(=O)c23)C1 : 102
COc1ccc(-c2n[nH]nc2-c2cc(OC)c(OC)c(OC)c2)cc1 : 14.2
O=C1/C=C/[C@@H](O)[C@@H]2C[C@@H](O)C[C@H]2/C=C/CCC[C@H](C(F)(F)F)O1 : -36.5
O=C(Nc1cc([N+](=O)[O-])c2[nH]c(=O)c3ccccc3c2c1)C(F)(F)F : 89.3
O=[N+]([O-])c1cccc(/C=N/NC(=S)NC23CC4CC(CC(C4)C2)C3)c1 : 103
C[C@H]1[C@H](OC(=O)CCC(=O)O)O[C@@H]2O[C@]3(C)CC[C@H]4[C@H](C)CC[C@@H]1[C@@]24OO3 : 48.1
COc1cc(-c2ccc(N=Nc3ccc4c(S(=O)(=O)O)ccc(N)c4c3O)c(OC)c2)ccc1N=Nc1ccc2c(S(=O)(=O)O)ccc(N)c2c1O : 114
COc1cc2c(Nc3ccc(-c4ccc(N)cc4)cc3)ncnc2c(OC)c1OC : 4.99
O=C1c2c(c3c4ccccc4n(CCCCCCN4CCOCC4)c3c3[nH]c4ccccc4c23)C(=O)N1O : 87.8
COc1cc(-c2nn(-c3cccc(NC(=O)CN4CCOCC4)c3)cc2-c2cccnc2)ccc1Cl : 112
COc1ccc(/C=C/c2nnc(/C=C/c3ccc(OC)c(OC)c3)o2)cc1OC : 54.9
CCN1CC(CCN2CCOCC2)C(C(c2ccccc2)c2ccccc2)C1=O (stereo unspecified) : 105
CCOC(=O)c1cc(C(=O)c2ccc(Cl)cc2)n2ccc(-c3cc[n+](CC(=O)c4ccc(OC)cc4)cc3)cc12 : 100
CCOC(=O)c1cc(C(=O)c2cc(OC)c(OC)c(OC)c2)n2ccc(-c3cc[n+](CC(=O)c4cc(OC)c(OC)c(OC)c4)cc3)cc12 : 109
CCOC(=O)c1sc2ncnc(Nc3ccc4c(cnn4C(=O)Nc4ccccc4)c3)c2c1C : 98.4
N#Cc1cnn(C(=O)c2nn(-c3ccc(Cl)cc3)cc2O)c1N : 11.9
COc1ccc(-c2nc(-c3nc4ccc(C)cc4[nH]3)cc3c2[nH]c2ccccc23)cc1 : 48.9
O=C(N/N=C/c1c(Cl)cccc1Cl)c1ccccc1Nc1cccc(C(F)(F)F)c1 : 117
COc1ccc(C2CC(c3cc(OC)c(OC)c(OC)c3)=NN2)cc1 (stereo unspecified) : 79.3
O=C1/C(=C/c2ccc3c(c2)OCO3)SC(=S)N1C1c2ccccc2Oc2ccccc21 : 80.1
CC(C)(C)OC(=O)N1CCc2c(sc3ncnc(N/N=C/c4ccc(Br)cc4)c23)C1 : 72.1
COc1cc2cc(Oc3ccc(NC(=O)c4cccc(C(F)(F)F)c4)cc3)c(C)nc2cc1OC : 62.3
Cc1ccc(C(=O)/C=C/c2ccccc2)s1 : 101
Cc1ccc2nc(Cl)c(-c3nc4ccccc4o3)cc2c1 : 87.8
COc1ccc(N(C)c2ncnc3occ(C)c23)cc1 : 7.26
COc1cc2c(cc1NC(=O)C(Cl)Cl)-c1ccc(NC(=O)C(Cl)Cl)cc1C2 : -98.5
Cc1ccc(C(=O)C2C(=O)C3CCC2C3)cc1 (stereo unspecified) : 106
O=c1cn[nH]c2ccc(Br)cc12 : 108
CCn1c(SCc2ccc(C)cc2)nnc1-c1nn(-c2ccc(Cl)cc2Cl)c(-c2ccc(Cl)cc2)c1C : 23.4
C/C=C/C1=CN2C(=O)c3cc(OC4OC(C)C(NC)C(C)(O)C4O)c(C)c(O)c3N=C[C@@H]2C1 (stereo partly specified) : -56.7
O=C1CCn2c1c(O)c1ccccc1c2=O : 109
